test: ATG_SREBP_CIS: Attagene CIS-FACTORIAL HepG2 Assay for human Sterol Regulatory Element Binding (SREBP) (AID 2282962)
assay-context: HepG2 Attagene cis-factorial SREBP reporter, mRNA; actives raise or lower the signal
Active and inactive are the calls of the source. The calls were made as follows: active = hit-call score of the fitted dose curve at least 0.9, where 1 is the maximum; inactive = score below 0.9.
quantity: AC50

INSERT INTO assay_data (compound, meas_value) VALUES
  ('Cc1ccc(S(=O)(=O)C(I)I)cc1', '4.34 µM (active)'),
  ('CC(=O)C=O', 'inactive'),
  ('CCCCCCCCCCCCCC[P+](CCCC)(CCCC)CCCC', '1.24 µM (active)'),
  ('CC(C)(C)C(=O)C1C(=O)c2ccccc2C1=O', 'inactive'),
  ('Cc1cccc(C)n1', 'inactive');

Please report the recorded AC50 for `COCCOCCC[Si](C)(O[Si](C)(C)C)O[Si](C)(C)C` .
6.62 µM (active)

Another: OCCC(O)CO (stereo not drawn)
inactive
